- Protocol Summary: Hepatic intrinsic clearance in liver microsomes
- Assay type: in vitro ADME
- Experimental Setup: human, pH 7.4, human liver microsomes, in vitro clearance, read-out: HLM CL

# Compound, CLint scaled at 200 μM
rows = [
    ("Cc1csc([C@H]2CCCN2C(=O)c2cncc(C(=O)N[C@@H](Cc3ccccc3)[C@H](O)CNCc3cc(Cl)nc(N(C)C)c3)c2)n1 [2-1, reference compound]", "> 700 mL/min/kg"),
    ("C=C(C)c1cccc(CNC[C@@H](O)[C@H](Cc2ccccc2)NC(=O)c2cccc(C(=O)N3CCC[C@@H]3c3nc(C)co3)c2)c1 [2-6, reference compound]", "> 700 mL/min/kg"),
    ("Cc1coc([C@H]2CCCN2C(=O)c2cccc(C(=O)N[C@@H](Cc3ccccc3)[C@H](O)[C@H]3C[C@@H](OCc4ccccc4)CN3)c2)n1", "< 400 mL/min/kg"),
    ("Cc1csc([C@H]2CCCN2C(=O)c2cc(C(=O)N[C@@H](Cc3ccccc3)[C@H](O)[C@H]3CCCN3)cc(-c3cccc(C(F)(F)F)c3)c2)n1", "< 400 mL/min/kg"),
]

====

- Protocol Summary: Hepatic intrinsic clearance in liver microsomes
- Type: in vitro ADME
- Experimental Setup: human, pH 7.4, human liver microsomes, read-out: hepatic intrinsic clearance in liver microsomes (HLMCL)
Entries and their measured CLint scaled at 200 μM follow.
Measure Name: CLint scaled at 200 μM

# Molecule, Measure Name, Measured Value
data = [
    ("Cc1coc([C@H]2CCCN2C(=O)c2cccc(C(=O)N[C@@H](Cc3ccccc3)[C@H](O)[C@H]3C[C@@H](OCc4ccccc4)CN3)c2)n1 [1-18]", "CLint scaled at 200 μM", "~337 mL/min/kg"),
    ("Cc1cc(C(=O)N[C@@H](Cc2ccccc2)[C@H](O)CNCc2cncc(C(C)(C)C)c2)cc(C(=O)N2CCC[C@@H]2c2nc(C)co2)c1 [2-3, reference compound]", "CLint scaled at 200 μM", "> 1000 mL/min/kg"),
]

====

pKi: −log10 of the molar value.
Each entry below carries its measured pKi, system: memapsin 2 (Homo sapiens).
Sequence (P56817 46-501): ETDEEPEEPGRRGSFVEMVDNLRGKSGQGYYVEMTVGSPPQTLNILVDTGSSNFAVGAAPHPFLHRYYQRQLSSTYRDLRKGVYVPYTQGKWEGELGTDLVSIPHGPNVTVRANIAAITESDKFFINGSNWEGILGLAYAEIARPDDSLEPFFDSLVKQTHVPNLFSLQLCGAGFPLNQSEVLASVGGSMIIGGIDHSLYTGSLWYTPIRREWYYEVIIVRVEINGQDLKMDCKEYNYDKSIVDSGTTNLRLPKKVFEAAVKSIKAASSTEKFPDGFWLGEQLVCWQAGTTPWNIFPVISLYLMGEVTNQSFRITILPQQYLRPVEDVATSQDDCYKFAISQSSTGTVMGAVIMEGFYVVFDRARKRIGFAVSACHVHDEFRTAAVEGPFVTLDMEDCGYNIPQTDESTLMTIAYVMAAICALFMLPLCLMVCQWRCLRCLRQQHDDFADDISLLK

# Mol, pKi
records = [
    ("Cc1csc([C@H]2CCCN2C(=O)c2cc(C(=O)N[C@@H](Cc3ccccc3)[C@H](O)[C@H]3CCCN3)cc(S(C)(=O)=O)c2)n1", "> 6.60"),
    ("Cc1coc([C@H]2CCCN2C(=O)c2cc(C(=O)N[C@@H](Cc3ccccc3)[C@H](O)[C@H]3CCCN3)cc(N(C)S(C)(=O)=O)c2)n1", "> 6.60"),
    ("Cc1cc(C(=O)N[C@@H](Cc2ccccc2)[C@H](O)[C@H]2CCCN2C(=O)OC(C)(C)C)cc(C(=O)N2CCC[C@@H]2c2nc(C)co2)c1", "< 6.12"),
    ("Cc1csc([C@H]2CCCN2C(=O)c2cc(C(=O)N[C@@H](Cc3ccccc3)[C@H](O)[C@H]3C[C@@H](OCc4ccccc4)CN3)cc(-c3ncco3)c2)n1", "> 6.60"),
    ("Cc1csc(CN(C)C(=O)c2cc(C(=O)N[C@@H](Cc3ccccc3)[C@H](O)[C@H]3CCCN3)cc(-c3ccc(F)cc3F)c2)n1", "> 6.60"),
    ("Cc1csc([C@H]2CCCN2C(=O)c2cccc(C(=O)N[C@@H](Cc3ccccc3)[C@H](O)[C@@H]3CCCN3)c2)n1", "< 6.12"),
]

Data origin: patent US20120214802A1
